Hey, just so you know, these numbers are from paper PMC10005332.

# Tested on: HCT-116 (human colorectal carcinoma)
# TEST_DETAILS: MTT cytotoxicity assay, HCT-116
# Assay type: cell-based
# MEASUREMENT_CONDITIONS: ratio of cytotoxicity L929 / HCT-116
TEST_READOUT: Selectivity index HCT-116

>>> df
                                    compound  reported
 0  CC1(C)OC2=C(CC1Cn1cc(CNC3=CC(=O)c4c(I)cccc4C3=O)nn1)C(=O)C(=O)c1ccccc12 (stereo not shown) [Compound 21a]       0.7
 1  O=C1C(=O)c2ccccc2C2=C1CC(Cn1cc(CNC3=CC(=O)c4c(I)cccc4C3=O)nn1)O2 (stereo not shown) [Compound 20a]       1.0
 2  O=C1C(=O)c2ccccc2C2=C1CC(Cn1cc(CNC3=CC(=O)c4c(O)cccc4C3=O)nn1)O2 (stereo not shown) [Compound 20b]       3.8
 3  CC1(C)OC2=C(C(=O)C(=O)c3ccccc32)C1n1cc(CNC2=CC(=O)c3cc4ccccc4cc3C2=O)nn1 (stereo not shown) [Compound 19e]       1.8
 4  O=C1C(=O)c2ccccc2C2=C1CC(Cn1cc(CNC3=CC(=O)c4cc5ccccc5cc4C3=O)nn1)O2 (stereo not shown) [Compound 20e]       2.2
 5  O=C1C(=O)c2ccccc2C2=C1CC(Cn1cc(CNC3=CC(=O)c4cccc(OCc5ccccc5)c4C3=O)nn1)O2 (stereo not shown) [Compound 20d]       1.5
 6  CC1(C)OC2=C(C(=O)C(=O)c3ccccc32)C1n1cc(CNC2=CC(=O)c3c(I)cccc3C2=O)nn1 (stereo not shown) [Compound 19a]       1.2
 7  CC1(C)OC2=C(C(=O)C(=O)c3ccccc32)C1n1cc(CNC2=CC(=O)c3c(O)cccc3C2=O)nn1 (stereo not shown) [Compound 19b]       3.5
 8  COc1cccc2c1C(=O)C(NCc1cn(CC3CC4=C(OC3(C)C)c3ccccc3C(=O)C4=O)nn1)=CC2=O (stereo not shown) [Compound 21c]       1.2
 9  COc1cccc2c1C(=O)C(NCc1cn(C3C4=C(OC3(C)C)c3ccccc3C(=O)C4=O)nn1)=CC2=O (stereo not shown) [Compound 19c]       5.7
10  CC1(C)OC2=C(CC1Cn1cc(CNC3=CC(=O)c4c(O)cccc4C3=O)nn1)C(=O)C(=O)c1ccccc12 (stereo not shown) [Compound 21b]       1.3
11  CC1(C)OC2=C(C(=O)C(=O)c3ccccc32)C1N=[N+]=[N-] (stereo not shown)       1.4
12  CC1(C)OC2=C(CC1Cn1cc(CNC3=CC(=O)c4cccc(OCc5ccccc5)c4C3=O)nn1)C(=O)C(=O)c1ccccc12 (stereo not shown) [Compound 21d]       1.3
13  CC1(C)OC2=C(CC1Cn1cc(CNC3=CC(=O)c4cc5ccccc5cc4C3=O)nn1)C(=O)C(=O)c1ccccc12 (stereo not shown) [Compound 21e]       1.0
14  CC1(C)OC2=C(C(=O)C(=O)c3ccccc32)C1n1cc(CNC2=CC(=O)c3cccc(OCc4ccccc4)c3C2=O)nn1 (stereo not shown) [Compound 19d]       4.3
15  [N-]=[N+]=NCC1CC2=C(O1)c1ccccc1C(=O)C2=O (stereo not shown)       1.9

----------
# System: SNB-19 (human astrocytoma)
# TEST_DETAILS: MTT cytotoxicity assay, SNB-19
# Type: cell-based
# MEASUREMENT_CONDITIONS: ratio of cytotoxicity L929 / SNB-19
# Method: In this study, the IC50 was obtained in micromolar concentrations, using the colourimetric MTT (3-(4,5-dimethylthiazol-2-yl)-2,5-diphenyl tetrazolium bromide)) assay, and doxorubicin was used as the positive control. […] The activity against the non-tumoural murine fibroblast cell line L929 was also evaluated in order to study the cytotoxicity behaviour of each compound and to understand their respective relative selectivity. […]
Parameter: Selectivity index SNB-19. Scope: all listed entries.
TEST_READOUT: Selectivity index SNB-19

                                   molecule  reported
0  COc1cccc2c1C(=O)C(NCc1cn(CC3CC4=C(O3)c3ccccc3C(=O)C4=O)nn1)=CC2=O (stereo not shown) [Compound 20c]       2.0
1  CC1(C)OC2=C(C(=O)C(=O)c3ccccc32)C1n1cc(CNC2=CC(=O)c3c(O)cccc3C2=O)nn1 (stereo not shown) [Compound 19b]       1.8
2  O=C1C(=O)c2ccccc2C2=C1CC(Cn1cc(CNC3=CC(=O)c4cccc(OCc5ccccc5)c4C3=O)nn1)O2 (stereo not shown) [Compound 20d]       0.9
3  CC1(C)OC2=C(C(=O)C(=O)c3ccccc32)C1n1cc(CNC2=CC(=O)c3c(I)cccc3C2=O)nn1 (stereo not shown) [Compound 19a]       1.2
4  COc1cccc2c1C(=O)C(NCc1cn(C3C4=C(OC3(C)C)c3ccccc3C(=O)C4=O)nn1)=CC2=O (stereo not shown) [Compound 19c]       1.1
5  C#CCNC1=CC(=O)c2c(O)cccc2C1=O [Compound 18b]       1.6
6  CC1(C)OC2=C(C(=O)C(=O)c3ccccc32)C1N=[N+]=[N-] (stereo not shown)       1.3

----------
# System: B16 (murine melanoma)
# TEST_DETAILS: MTT cytotoxicity assay, B16
# Type: cell-based
# MEASUREMENT_CONDITIONS: Mus musculus; MTT, 72 h exposure, three independent experiments; read-out: Cytotoxic activity IC50 (95% CI) B16
pIC50: −log10 of the molar value.
TEST_READOUT: pIC50

>>> df
                                   compound  test_readout  reported
0  C#CCNC1=CC(=O)c2c(I)cccc2C1=O [Compound 18a]         pIC50      4.31
1  CC1(C)OC2=C(CC1Cn1cc(CNC3=CC(=O)c4c(I)cccc4C3=O)nn1)C(=O)C(=O)c1ccccc12 (centres unmarked) [Compound 21a]         pIC50      6.02
2  O=C1C(=O)c2ccccc2C2=C1CC(Cn1cc(CNC3=CC(=O)c4c(I)cccc4C3=O)nn1)O2 (centres unmarked) [Compound 20a]         pIC50      5.38
3  O=C1C(=O)c2ccccc2C2=C1CC(Cn1cc(CNC3=CC(=O)c4c(O)cccc4C3=O)nn1)O2 (centres unmarked) [Compound 20b]         pIC50      5.34
4  CC1(C)OC2=C(C(=O)C(=O)c3ccccc32)C1n1cc(CNC2=CC(=O)c3cc4ccccc4cc3C2=O)nn1 (centres unmarked) [Compound 19e]         pIC50      5.40
5  CC1(C)OC2=C(CC1Cn1cc(CNC3=CC(=O)c4cccc(OCc5ccccc5)c4C3=O)nn1)C(=O)C(=O)c1ccccc12 (centres unmarked) [Compound 21d]         pIC50      5.29
6  C#CCNC1=CC(=O)c2cccc(OCc3ccccc3)c2C1=O [Compound 18d]         pIC50      4.45
7  CC1(C)OC2=C(CC1Cn1cc(CNC3=CC(=O)c4c(O)cccc4C3=O)nn1)C(=O)C(=O)c1ccccc12 (centres unmarked) [Compound 21b]         pIC50      5.40

----------
# Test system: HL60 (human pro-myelocytic leukaemia)
# TEST_DETAILS: MTT cytotoxicity assay, HL60
# Type: cell-based
# MEASUREMENT_CONDITIONS: Homo sapiens, HL-60, 72 h, MTT, 72 h exposure, three independent experiments; read-out: Cytotoxic activity IC50 (95% CI) HL60
TEST_READOUT: IC50 (µM)

In [3]: df
Out[3]:
                                   molecule  unit  readout_relation  reported
0  COc1cccc2c1C(=O)C(NCc1cn(CC3CC4=C(OC3(C)C)c3ccccc3C(=O)C4=O)nn1)=CC2=O (stereo not shown) [Compound 21c]    µM                 =      2.28
1  CC1(C)OC2=C(C(=O)C(=O)c3ccccc32)C1n1cc(CNC2=CC(=O)c3cccc(OCc4ccccc4)c3C2=O)nn1 (stereo not shown) [Compound 19d]    µM                 =       0.3
2  C#CCNC1=CC(=O)c2cccc(OCc3ccccc3)c2C1=O [Compound 18d]    µM                 =        32
3  C#CCNC1=CC(=O)c2cc3ccccc3cc2C1=O [Compound 18e]    µM                 >       100
4  O=C1C(=O)c2ccccc2C2=C1CC(Cn1cc(CNC3=CC(=O)c4c(I)cccc4C3=O)nn1)O2 (stereo not shown) [Compound 20a]    µM                 =      2.84
5  CC1(C)OC2=C(C(=O)C(=O)c3ccccc32)C1N=[N+]=[N-] (stereo not shown)    µM                 =      1.08
6  [N-]=[N+]=NCC1CC2=C(O1)c1ccccc1C(=O)C2=O (stereo not shown)    µM                 =      0.59
